- target or system: T1, human calcitonin (a) receptor (human, UniProt P30988 25-474)
- T1 sequence (looked up): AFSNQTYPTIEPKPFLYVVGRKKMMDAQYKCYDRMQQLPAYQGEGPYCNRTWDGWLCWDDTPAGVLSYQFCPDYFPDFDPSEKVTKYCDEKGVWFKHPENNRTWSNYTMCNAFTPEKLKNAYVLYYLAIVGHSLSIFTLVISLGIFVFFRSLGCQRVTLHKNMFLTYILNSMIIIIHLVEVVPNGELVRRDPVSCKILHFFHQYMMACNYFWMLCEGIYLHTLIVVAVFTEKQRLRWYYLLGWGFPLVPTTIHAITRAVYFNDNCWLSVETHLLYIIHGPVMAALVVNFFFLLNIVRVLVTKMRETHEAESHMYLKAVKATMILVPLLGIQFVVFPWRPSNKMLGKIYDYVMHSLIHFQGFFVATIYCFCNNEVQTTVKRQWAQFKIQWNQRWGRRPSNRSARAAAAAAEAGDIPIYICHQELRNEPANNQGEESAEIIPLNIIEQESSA
- test: cell-based or functional assay
Starred links: 1 amine or outer side, 2 acyl side, 3 side chain; linkers in the order of their positions; H or OH if unused. Positions of bridges follow the written chain, without caps; N, C: chain ends. Groups on a side chain read outwards from the residue. No end group written: not given here. *: point of attachment. C20 diacid = O=C(O)CCCCCCCCCCCCCCCCCCC(=O)*; 19‑carboxyheptadecanoyl = not defined here; γGlu = O=C(O)[C@H](CCC(=O)[*:2])N[*:1]; AEEA = NCCOCCOCC(=O)O
readout: CTa receptor human EC50 (nM)
Numbers only, in nM.

{"columns": ["binder", "readout", "observed"],
 "data": [
  ["KCNTATCATQRLAEFLHHSSNNFGK([AEEA-AEEA-γGlu-19‑carboxyheptadecanoyl])ILSSTNVGSHTY-NH2 (disulfide 2-7)", "CTa receptor human EC50", 0.111],
  ["{C20 diacid-γGlu}-EKCNTATCATQRLAEFLHHSSNNFGPILPPTNVGSHTY-NH2 (disulfide 3-8; not fully specified; printed as N-alpha-[(S)-4-Carboxy-4-(19-carboxynonadecanoylamino)butyryl]-Glu-[Glu14,His17,His35]-pramlintide) [N-alpha-[(S)-4-Carboxy-4-(19-carboxynonadecanoylamino)butyryl]-Glu-[Glu14,His17,His35]-pramlintide]", "CTa receptor human EC50", 0.352]
]}

Let's switch to this binder now.
Quick one: CTa receptor human EC50 for {19‑carboxyheptadecanoyl-γGlu-AEEA-AEEA}-KCNTATCATQRLAEFLHHSSENFGPILPPTNVGSNTP-NH2 (disulfide 2-7; reading uncertain; also: printed as N-alpha-[2-(2-{2-[2-(2-{2-[(S)-4-Carboxy-4-(19-carboxyheptadecanoylamino)butyrylamino]ethoxy}ethoxy)acetylamino]ethoxy}ethoxy)acetyl]-[Glu14,His17,Glu21,Pro37]-pramlintide) ?
0.113
